Hello, the source for this data is patent US20220106398A1, in case you need it.

Biological target: T1, cynomolgus monkey His6-GITR (cynomolgus monkey)
T1 construct: His6-tagged recombinant protein; also called cGITR-His; cyno GITR-His
T1 chain: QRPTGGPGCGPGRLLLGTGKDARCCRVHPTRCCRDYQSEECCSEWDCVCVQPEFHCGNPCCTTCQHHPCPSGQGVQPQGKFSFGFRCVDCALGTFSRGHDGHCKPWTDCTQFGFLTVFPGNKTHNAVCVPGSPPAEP
Assay: ELISA, scFv periplasmic extract on coated His6-GITR
Method: The SuperHuman-2.0 scFv Antibody Library (available from Distributed Bio, South San Francisco, Calif.) was used to perform selection with human, cynomolgus or mouse GITR proteins. Selected phage clones from overnight growth were inoculated into wells in 96 well deep well plates containing 1 mL of medium. scFv expression was induced by addition of IPTG (Teknova) to a final concentration of 1 mM. […] Plates were read at 450 nm to determine ELISA signal from bound PPE derived scFv.
Parameter cGITR-His/BKG: see the listing below.
Provide the reading as a plain figure in fold over background.

Sample answers from the record:
GITR-Mab-46 scFv (scFv, V domains shown, scFv in periplasmic extract, V5 tag) VH: QVQLVQSGAEVKKPGASVKVSCKASGGSFSNYAINWVRQAPGQGLEWMGWMNPYSGNTGYAQKFQGRVTMTRDTSTSTVYMELSSLRSEDTAVYYCAREITANYYYGMDVWGQGTKVTVSS VL: DIQMTQSPSSLSASVGDRVTITCQASQDISNYLNWYQQKPGKAPKLLIYEASVLESGVPSRFSGSGSGTDFTLTISSLQPEDFATYYCQQSYTTQYTFGQGTKVEIK | 5.3
GITR-Mab-35 scFv (scFv, V domains shown, scFv in periplasmic extract, V5 tag) VH: QVQLVQSGAEVKKPGASVKVSCKASGYTFTNYYMHWVRQAPGQGLEWMGLITPSGGRTKYAQKFQGRVTMTRDTSTSTVYMELSSLRSEDTAVYYCAREMEYSSSWYWFDPWGQGTLVTVSS VL: DIQMTQSPSSLSASVGDRVTITCQASQGISSYLNWYQQKPGKAPKLLIYAASTLQSGVPSRFSGSGSGTDFTLTISSLQPEDFATYYCQQSYSTPLTFGGGTKVEIK | 0.9
GITR-Mab-1 scFv (scFv, V domains shown, scFv in periplasmic extract, V5 tag) VH: QVQLVQSGAEVKKPGASVKVSCKASGYTFTNYHLHWVRQAPGQGLEWMGMINPNDGSTTYAQKFQGRVTMTRDTSTSTVYMELSSLRSEDTAVYYCARSTYYYDSSGYYYYYYGMDVWGQGTTVTVSS VL: EIVMTQSPATLSVSPGERATLSCRASQSVYSNYLAWYQQKPGQAPRLLIYGASTRATGIPARFSGSGSGTEFTLTISSLQSEDFAVYYCQQYHSYPLTFGGGTKVEIK | 15.8

Could you now consider this next binder?
Given the entry GITR-Mab-28 scFv (scFv, V domains shown, scFv in periplasmic extract, V5 tag) VH: QVQLVQSGAEVKKPGASVKVSCKASGYTFPNYGITWVRQAPGQGLEWMGWMNPNSGYTGYAQNFQGRVTMTRDTSTSTVYMELSSLRSEDTAVYYCARGMPGRGFDPWGQGTLVTVSS VL: EIVMTQSPATLSVSPGERATLSCRASQSVSSNYLAWYQQKPGQAPRLLIYGASTRATGIPARFSGSGSGTEFTLTISSLQSEDFAVYYCQQYHTYPPTFGQGTKLEIK , report its measured cGITR-His/BKG.
1
